Taken from PubChem BioAssay AID1745844.

Tested on: rodent lifetime carcinogenesis bioassay, tumor incidence TD50
experimental.protocol: carcinogenic potency in animals, long-term in vivo studies, CPDB compilation (AID 1745844)
condition.details: mouse; strain CTM; males; in feed; site: any site (literature study); lesion: several types; types named in the paper; dosed 40 weeks; study length 73 weeks
reported.metric: TD50

O=[N+]([O-])c1ccc(-c2cnc3ccccn23)o1 yielded TD50 of 57.1 mg/kg/day

----------
Test system: rodent lifetime carcinogenesis bioassay, tumor incidence TD50
experimental.protocol: carcinogenic potency in animals, long-term in vivo studies, CPDB compilation (AID 1745844)
condition.details: mouse; strain B6C3F1; males; in feed; site: liver; lesion: hepatocellular carcinoma; dosed 78 weeks; study length 90 weeks
reported.metric: TD50

TD50 in this record for CCOC(=O)C(O)(c1ccc(Cl)cc1)c1ccc(Cl)cc1 : 235 mg/kg/day
